TARGET: T1, GST-TIA-1 RRM2 (UniProt P31483 P31483:106-184)
T1 sequence: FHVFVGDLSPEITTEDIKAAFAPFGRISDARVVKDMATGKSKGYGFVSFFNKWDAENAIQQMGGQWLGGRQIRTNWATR
ASSAY COMMENT: EMSA; SD 15 nM, n=1.1
DETAILS: tags: GST fusion; label: 32P; stem-loop
EXPERIMENTAL ENDPOINT: Kd
Remember to follow the number with its unit.

Q: Need Kd, item WNV 3'(-)SL RNA with 5' CCC (ssRNA) RNA: CCCCAGCUCGCACCGUGUUAAUUGUUGUUAAUCCUCACAAACACUACUAAGUUUGUCAGCUCACACAGGCGAACUACU
Ans: 112 nM
